Measured values drawn from patent US12077503B2 for this set.

Measured pest or weed control at 125 g/ha, listed per entry.
- System: ryegrass, Italian (Italian ryegrass, Lolium multiflorum)
- assay.protocol: Test A preemergence
- Assay type: in vivo
- experimental.conditions: Lolium multiflorum, pre-emergence, 240 h, 125 g ai/ha, preemergence; 0 to 100 scale where 0 is no effect and 100 is complete control; approx. 10 d; read-out: Ryegrass, Italian plant response rating
- From the text: […]
parameter: pest or weed control at 125 g/ha (%)

1) Cc1c(F)cccc1NC(=O)[C@H]1C(=O)N(C)C[C@@H]1c1cc(F)cc(F)c1 [Compound 1140] = 30
2) CN1C[C@H](c2cscn2)[C@@H](C(=O)Nc2cccc(F)c2F)C1=O [Compound 1113] = 0
3) CN1CC(c2ccccc2OC(F)(F)C(F)F)C(C(=O)Nc2cccc(F)c2F)C1=O (centres unmarked) [Compound 1056] = 0
4) O=C1NC[C@H](c2cccc(I)c2)[C@H]1C(=O)Nc1ccccc1F [Compound 1160] = 0
5) CSc1ccccc1NC(=O)[C@H]1C(=O)N(C)C[C@@H]1c1cc(C(F)F)cs1 [Compound 1088] = 0
6) O=C1NC[C@H](c2csc(C(F)F)c2)[C@H]1C(=O)Nc1ccccc1F [Compound 1118] = 40
7) CC(C)Oc1cc([C@H]2CN(C)C(=O)[C@@H]2C(=O)Nc2cccc(F)c2F)ccc1F [Compound 1075] = 80
8) CN1C[C@H](c2csc3c2CCCC3)[C@@H](C(=O)Nc2ccccc2S(C)(=O)=O)C1=O [Compound 1080] = 0

###

- Test system: Kochia (Kochia scoparia)
- assay.protocol: Test A preemergence
- Assay type: in vivo
- experimental.conditions: Bassia scoparia, pre-emergence, 240 h, 125 g ai/ha, preemergence; visual injury rating, 0 to 100 scale where 0 is no effect and 100 is complete control; approximately 10 d; read-out: Kochia plant response rating
Below is a list of entries, each paired with its recorded pest or weed control at 125 g/ha value.
parameter: pest or weed control at 125 g/ha (%)

1) COc1cc([C@H]2CN(C)C(=O)[C@@H]2C(=O)Nc2ccccc2F)ccc1F [Compound 1298] = 0
2) CN1C[C@H](c2csc3c2CCCC3)[C@@H](C(=O)Nc2cccc(F)c2F)C1=O [Compound 1276] = 60
3) CSc1ccccc1NC(=O)[C@H]1C(=O)N(C)C[C@@H]1c1ccc(F)cc1 [Compound 1236] = 20
4) Cc1nc([C@H]2CN(C)C(=O)[C@@H]2C(=O)Nc2cccc(F)c2F)cs1 [Compound 1281] = 0
5) Cc1c(F)cccc1NC(=O)[C@H]1C(=O)N(C)C[C@@H]1c1ccc(C(F)(F)F)nc1 [Compound 1197] = 100
6) COc1cc(C(F)(F)F)ccc1[C@H]1CNC(=O)[C@@H]1C(=O)Nc1ccccc1F [Compound 1202] = 20
7) CN1C[C@H](c2cccc(C(F)(F)F)c2)[C@@H](C(=O)Nc2ccccc2-n2cncn2)C1=O [Compound 1289] = 0
8) CCc1ccc([C@H]2CNC(=O)[C@@H]2C(=O)Nc2c(F)cccc2F)cc1 [Compound 1248] = 0
9) CN1C[C@H](c2ccc(C(F)(F)F)cc2)[C@@H](C(=O)Nc2ccccc2-n2cncn2)C1=O [Compound 1288] = 0
10) CSc1ccccc1NC(=O)[C@H]1C(=O)N(C)C[C@@H]1c1ccc(OC(F)F)cc1 [Compound 1212] = 100
